- test-method-notes: Bioavailability in dogs by oral route (plasma rifaximin by LC-MS/MS)
- Format: in vivo, Beagle female dogs
- particulars: Beagle, dog, plasma, oral, 100 mg/kg, pharmaceutical composition comprising the polymorphic form; conditions not stated; read-out: Cmax (summary embodiment)
quantity-measured: Cmax

Find the recorded Cmax belonging to "CO[C@H]1/C=C/O[C@@]2(C)Oc3c(C)c(O)c4c(O)c(c5c(nc6cc(C)ccn65)c4c3C2=O)NC(=O)/C(C)=C\C=C\[C@H](C)[C@H](O)[C@@H](C)[C@@H](O)[C@@H](C)[C@H](OC(C)=O)[C@@H]1C" and report it. ~2 ng/mL
